The origin of these recorded values is PubChem BioAssay (NCI).

growth for assorted compounds
System: ACHN renal
Protocol Text: NCI-60 one-dose screen, 48 h (100 = growth as untreated, 0 = no growth, -100 = all killed)
Condition Details: 10 µM
The panel holds about 83,000 compounds, 20% with a hit somewhere; the sample as a whole holds those more often.
Quantity Measured: growth (%)

{"Compound": "CSc1[nH]c(=O)ncc1F", "Study Target": "ACHN renal", "Readout Units": "%", "Assay Value": 95}
{"Compound": "CCC/C=C(/C(C)=O)C(=O)OCC", "Study Target": "ACHN renal", "Readout Units": "%", "Assay Value": 103}
{"Compound": "O=[N+]([O-])c1ccc(-c2noc(-c3cccs3)n2)cc1", "Study Target": "ACHN renal", "Readout Units": "%", "Assay Value": 60.2}
{"Compound": "CC1(C)/C(=C\\CO)C2CCC1C2 (configuration not stated)", "Study Target": "ACHN renal", "Readout Units": "%", "Assay Value": 112}
{"Compound": "CCN(CC)C(=O)/C=C(/C)c1ccccc1", "Study Target": "ACHN renal", "Readout Units": "%", "Assay Value": 110}
{"Compound": "CN(C)CCN(Cc1ccccc1)c1ccccc1", "Study Target": "ACHN renal", "Readout Units": "%", "Assay Value": 110}
{"Compound": "S=C(Nc1ccccc1)N1CCCCC1", "Study Target": "ACHN renal", "Readout Units": "%", "Assay Value": 94.5}
{"Compound": "O=C(O)CCC(=O)OC(C1CO1)C(OC(=O)CCC(=O)O)C1CO1 (configuration not stated)", "Study Target": "ACHN renal", "Readout Units": "%", "Assay Value": 101}
{"Compound": "Nc1nc(OCc2ccccc2)c2[nH]cnc2n1", "Study Target": "ACHN renal", "Readout Units": "%", "Assay Value": 73.5}
{"Compound": "CCCOC(=O)C(O)c1ccccc1 (configuration not stated)", "Study Target": "ACHN renal", "Readout Units": "%", "Assay Value": 98.3}
{"Compound": "O=C(N/N=C/c1ccccc1O)Nc1nn[nH]n1", "Study Target": "ACHN renal", "Readout Units": "%", "Assay Value": 92.8}
{"Compound": "O=C1OC[C@H]2[C@H](c3ccc(O)c(O)c3)c3cc(O)c(O)cc3C[C@H]12", "Study Target": "ACHN renal", "Readout Units": "%", "Assay Value": 112}
{"Compound": "O=C(/C=C/C(=O)c1ccccc1)c1ccccc1", "Study Target": "ACHN renal", "Readout Units": "%", "Assay Value": 90.1}
{"Compound": "COc1ccc2c(c1)CCc1c-2n[nH]c1-c1[nH]nc2c1CCc1cc(OC)ccc1-2", "Study Target": "ACHN renal", "Readout Units": "%", "Assay Value": 57.8}
{"Compound": "C[N+](C)(C)C(=O)c1ccccc1", "Study Target": "ACHN renal", "Readout Units": "%", "Assay Value": 107}
{"Compound": "Nc1ccc(N)c([N+](=O)[O-])c1", "Study Target": "ACHN renal", "Readout Units": "%", "Assay Value": 102}
{"Compound": "CC1CCC(C(=O)O)N1 (configuration not stated)", "Study Target": "ACHN renal", "Readout Units": "%", "Assay Value": 91.6}
{"Compound": "O=[N+]([O-])c1ccc(S(=O)(=O)NN=C2CCCCC2)cc1", "Study Target": "ACHN renal", "Readout Units": "%", "Assay Value": 100}
{"Compound": "CC(C)CCCC(=O)O", "Study Target": "ACHN renal", "Readout Units": "%", "Assay Value": 104}
{"Compound": "N#CCc1ccc([N+](=O)[O-])cc1", "Study Target": "ACHN renal", "Readout Units": "%", "Assay Value": 103}
{"Compound": "Oc1ccc(Cc2ccccc2)c2cccnc12", "Study Target": "ACHN renal", "Readout Units": "%", "Assay Value": 11.5}
{"Compound": "O=C(CCl)Nc1ccc2c(c1)C(=O)c1ccc(NC(=O)CCl)cc1C2=O", "Study Target": "ACHN renal", "Readout Units": "%", "Assay Value": -65.7}
{"Compound": "CC(CC(=O)c1ccccc1)c1ccccc1 (configuration not stated)", "Study Target": "ACHN renal", "Readout Units": "%", "Assay Value": 115}
{"Compound": "COC(=O)CCCCC1=CCC2C(=O)C=C(O)C2C1 (configuration not stated)", "Study Target": "ACHN renal", "Readout Units": "%", "Assay Value": 98.9}
{"Compound": "O=S(=O)(O)c1ccc(O)c2ccccc12", "Study Target": "ACHN renal", "Readout Units": "%", "Assay Value": 100}
{"Compound": "CC(C)=NNc1ccc([N+](=O)[O-])cc1[N+](=O)[O-]", "Study Target": "ACHN renal", "Readout Units": "%", "Assay Value": 64.8}
{"Compound": "CCOc1ccccc1/C=N/Nc1nc2ccccc2o1", "Study Target": "ACHN renal", "Readout Units": "%", "Assay Value": 103}
